B1: FCHO1 (parent)
chain: FSDPSQSDPETKDFWLNMAALTEA

Variants of: B1
Assay: protein stability index of a GFP-peptide fusion (GPS, HEK-293T) (PSI 1-6); higher = more stable;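 also: lentivirally expressed fusions sorted by FACS into six bins by GFP to DsRed ratio, PSI derived from sequencing read proportions per bin multiplied by bin number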
Settings: c terminus: a fixed tail appended
We use 3 as the dividing line for protein stability index: on or above the line is Criterion met, below is Criterion not met.

F14M :: Criterion met
D3M :: Criterion not met
W15V :: Criterion met
Q6R :: Criterion not met
E23V :: Criterion not met
T22V :: Criterion met

Continue with the variant presented below.
Check the entry "D13N" : does protein stability index equal or exceed 3?
Criterion not met
